Experiment: Microsomal stability: incubation with human liver microsomes, residual parent compound by HPLC-MS/MS
Assay type: in vitro ADME
Conditions: human liver microsomes 0.5 mg/ml, compound 1 μM, pH 7.4, 37° C., up to 60 min; read-out: t1/2 hLM
Recorded half-life at 1 μM by entry
valueKind: half-life at 1 μM

molecule	valueKind	measValue
C[C@]1(O)C[C@@H](n2ncc(-c3onc(-c4c(F)cccc4Cl)c3COC3CC3)c2C(F)(F)F)C1	half-life at 1 μM	> 100 min
[2H]C(C)(O)Cn1ncc(-c2onc(-c3c(F)cccc3Cl)c2-c2nccs2)c1C(F)(F)F (racemic)	half-life at 1 μM	40 to 100 min
C[C@@H](O)Cn1ncc(-c2onc(-c3c(F)cccc3Cl)c2COC2CCC2)c1C(F)(F)F	half-life at 1 μM	2 to 9.99 min
CCOC(=O)c1c(-c2c(F)cccc2Cl)noc1-c1cnn(CC(O)C(F)(F)F)c1C(F)(F)F (racemic)	half-life at 1 μM	2 to 9.99 min
CC(C)(O)Cn1ncc(-c2onc(-c3c(F)cccc3Cl)c2C(=O)OC2CCC2)c1C(F)(F)F	half-life at 1 μM	2 to 9.99 min

* * *

Experiment: Aqueous solubility in 50 mM phosphate buffer (HPLC/DAD)
Format: physicochemical
Conditions: 50 mM phosphate buffer, 23 °C, pH 7.4, aqueous buffer, kinetic from dmso stock, aqueous solubility class; read-out: aq. solub.
Procedure: To achieve this, the samples (final volume 500 μl, 200 μM compound concentration) were incubated for 24 hours at 23° C. under continuous shaking at 1400 rpm (Thermomixer, Eppendorf) in aqueous phosphate buffers (pH 4.0, 6.0, 7.4 and 9.0) with a final DMSO concentration of 1%. […] Supernatants were measured via HPLC equipped with a UV detector and concentrations were calculated according to signals of a standard curve. […]

structureAsSmiles	solubility at 24 h
COc1cccc(-c2noc(-c3cnn([C@H]4C[C@@](C)(O)C4)c3C(F)(F)F)c2COC2CC2)c1Cl	3 to 9.99 µM
CC(C)(O)Cn1ncc(-c2onc(-c3c(F)cccc3Cl)c2C(=O)OC2CCC2)c1C(F)(F)F	1 to 2.99 µM
Cc1c(-c2onc(-c3c(F)cccc3Cl)c2COC2CC2)cnn1[C@H]1C[C@@](C)(O)C1	1 to 2.99 µM
CC(C)(O)CCn1ncc(-c2onc(-c3cccc(OCc4ccccc4)c3Cl)c2-c2ncccn2)c1C(F)(F)F	< 1 µM
Cc1c(-c2onc(-c3c(F)cccc3Cl)c2-c2cnccn2)cnn1[C@H]1C[C@@](C)(O)C1	> 10 µM
CCOC(=O)c1c(-c2cccc(OC)c2Cl)noc1-c1cnn(CCC(C)(C)O)c1C(F)(F)F	3 to 9.99 µM
CCOC(=O)c1c(-c2c(F)cccc2Cl)noc1-c1cnn([C@H]2C[C@@](C)(O)C2)c1C(F)(F)F	3 to 9.99 µM
CCN(CC)CCCOc1cccc(-c2noc(-c3cnn(CCC(C)(C)O)c3C)c2-c2ncccn2)c1Cl	> 10 µM

* * *

Recorded half-life at 1 μM by entry
Experiment: Microsomal stability: incubation with human liver microsomes, residual parent compound by HPLC-MS/MS
Type: in vitro ADME
Details: human liver microsomes 0.5 mg/ml, compound 1 μM, pH 7.4, 37° C., up to 60 min; read-out: t1/2 hLM

compound	half-life at 1 μM
CC(C)(O)CCn1ncc(-c2onc(-c3c(F)cccc3Cl)c2-c2nccs2)c1C(F)(F)F	> 1.67 h
CC(C)OCc1c(-c2c(F)cccc2Cl)noc1-c1cnn(C[C@@H](C)O)c1C(F)(F)F	0.0333 to 0.167 h
Cc1c(-c2onc(-c3ccccc3Cl)c2C(=O)OC2CC2)cnn1[C@H]1C[C@@](C)(O)C1	> 1.67 h
Cc1c(-c2onc(-c3c(F)cccc3Cl)c2COC2CC2)cnn1CCC(C)(C)O	> 1.67 h
CCOC(=O)c1c(-c2c(F)cccc2Cl)noc1-c1cnn(CCC(C)(C)O)c1C(F)(F)F	0.667 to 1.67 h
COC(=O)c1c(-c2cccc(OC)c2Cl)noc1-c1cnn(CCC(C)(C)O)c1C	> 1.67 h
COC(=O)c1c(-c2ccccc2Cl)noc1-c1cnn(CCC(C)(C)O)c1C	> 1.67 h
C[C@H](O)Cn1ncc(-c2onc(-c3c(F)cccc3Cl)c2C(=O)OC2CC2)c1C(F)(F)F	0.167 to 0.666 h
C[C@@H](O)Cn1ncc(-c2onc(-c3c(F)cccc3Cl)c2C(=O)OC2COC2)c1C(F)(F)F	0.667 to 1.67 h
[2H]C(C)(O)Cn1ncc(-c2onc(-c3c(F)cccc3Cl)c2C(=O)OCC)c1C(F)(F)F (racemic)	0.667 to 1.67 h
C[C@H](O)Cn1ncc(-c2onc(-c3c(F)cccc3Cl)c2-c2nccs2)c1C(F)(F)F	0.667 to 1.67 h
C[C@@H](O)Cn1ncc(-c2onc(-c3c(F)cccc3Cl)c2-c2nccs2)c1C(F)(F)F	0.167 to 0.666 h
CCOC(=O)c1c(-c2c(F)cccc2Cl)noc1-c1cnn(CC(C)(C)O)c1C(F)(F)F	> 1.67 h
C[C@@H](O)Cn1ncc(-c2onc(-c3c(F)cccc3Cl)c2C(=O)NC2CCCC2)c1C(F)(F)F	0.0333 to 0.167 h
C[C@]1(O)C[C@@H](n2ncc(-c3onc(-c4ccccc4Cl)c3COC3CC3)c2C(F)(F)F)C1	> 1.67 h
Cc1c(-c2onc(-c3c(F)cccc3Cl)c2C(=O)OC2CC2)cnn1[C@H]1C[C@@](C)(O)C1	0.667 to 1.67 h
CC(C)(O)Cn1ncc(-c2onc(-c3c(F)cccc3Cl)c2-c2nccs2)c1C(F)(F)F	> 1.67 h

* * *

Assay: Microsomal stability: incubation with human liver microsomes, residual parent compound by HPLC-MS/MS
Assay type: in vitro ADME
Conditions: pH 7.4; human liver microsomes, 1 μM compound, 0.5 mg/ml HLM, 37° C., up to 60 min; read-out: t1/2 hLM
valueKind: half-life at 1 μM

structureAsSmiles	measValue
COc1cccc(-c2noc(-c3cnn(CCC(C)(C)O)c3C)c2-c2ncccn2)c1Cl	> 100 min
CC(C)(O)CCn1ncc(-c2onc(-c3cccc(OCc4ccccc4)c3Cl)c2-c2ncccn2)c1C(F)(F)F	2 to 9.99 min
C[C@]1(O)C[C@@H](n2ncc(-c3onc(-c4ccccc4Cl)c3-c3cnccn3)c2C(F)(F)F)C1	> 100 min
CCOC(=O)c1c(-c2cccc(OC)c2Cl)noc1-c1cnn(CCC(C)(C)O)c1C(F)(F)F	40 to 100 min
C[C@@H](O)Cn1ncc(-c2onc(-c3cccc(C(=O)N4CCCC4)c3Cl)c2-c2ccncn2)c1C(F)(F)F	10 to 40 min
CC(C)(O)CCn1ncc(-c2onc(-c3cccc(OCCN4CCS(=O)(=O)CC4)c3Cl)c2-c2ncccn2)c1C(F)(F)F	2 to 9.99 min
Cc1c(-c2onc(-c3c(F)cccc3Cl)c2-c2cnccn2)cnn1[C@H]1C[C@@](C)(O)C1	> 100 min
Cc1c(-c2onc(-c3ccccc3Cl)c2-c2ncccn2)cnn1CCC(C)(C)O	> 100 min
COc1ccc(Cl)c(-c2noc(-c3cnn(CCC(C)(C)O)c3C)c2-c2ncccn2)c1Cl	> 100 min
CC(C)(O)CCn1ncc(-c2onc(-c3cccc(OCCN4CCCC4)c3Cl)c2-c2ncccn2)c1C(F)(F)F	40 to 100 min
CCOC(=O)c1c(-c2cccc(OC)c2Cl)noc1-c1cnn([C@H]2C[C@@](C)(O)C2)c1C(F)(F)F	> 100 min
CC(C)(O)CCn1ncc(-c2onc(-c3cccc(OCCCN4CCS(=O)(=O)CC4)c3Cl)c2-c2ncccn2)c1C(F)(F)F	2 to 9.99 min
